pIC50 values, listed per item
targetOrSystem: Recombinant PRC2 (EZH2-Y641F) (Homo sapiens, UniProt Q15910, Y641F)
Sequence (Q15910 whole entry Y641F): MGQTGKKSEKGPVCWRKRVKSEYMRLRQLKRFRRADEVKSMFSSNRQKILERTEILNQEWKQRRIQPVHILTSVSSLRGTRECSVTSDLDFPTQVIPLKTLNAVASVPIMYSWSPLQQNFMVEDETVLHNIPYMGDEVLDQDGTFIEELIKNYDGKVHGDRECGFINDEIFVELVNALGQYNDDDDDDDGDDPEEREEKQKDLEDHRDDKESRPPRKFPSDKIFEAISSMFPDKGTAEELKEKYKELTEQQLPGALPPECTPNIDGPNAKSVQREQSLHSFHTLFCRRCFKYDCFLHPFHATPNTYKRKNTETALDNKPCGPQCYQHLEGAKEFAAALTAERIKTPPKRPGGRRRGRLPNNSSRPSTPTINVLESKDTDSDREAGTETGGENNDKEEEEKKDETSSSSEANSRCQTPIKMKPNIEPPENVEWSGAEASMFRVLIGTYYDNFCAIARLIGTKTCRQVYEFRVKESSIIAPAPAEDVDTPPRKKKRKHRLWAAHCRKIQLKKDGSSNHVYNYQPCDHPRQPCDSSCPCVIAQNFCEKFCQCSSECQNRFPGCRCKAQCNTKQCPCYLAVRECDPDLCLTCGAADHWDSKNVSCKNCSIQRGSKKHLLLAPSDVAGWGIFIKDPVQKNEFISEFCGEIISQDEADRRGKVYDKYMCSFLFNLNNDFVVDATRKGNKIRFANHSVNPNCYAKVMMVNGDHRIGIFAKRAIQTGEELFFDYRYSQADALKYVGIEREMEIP
Sequence (O75530 whole entry partner): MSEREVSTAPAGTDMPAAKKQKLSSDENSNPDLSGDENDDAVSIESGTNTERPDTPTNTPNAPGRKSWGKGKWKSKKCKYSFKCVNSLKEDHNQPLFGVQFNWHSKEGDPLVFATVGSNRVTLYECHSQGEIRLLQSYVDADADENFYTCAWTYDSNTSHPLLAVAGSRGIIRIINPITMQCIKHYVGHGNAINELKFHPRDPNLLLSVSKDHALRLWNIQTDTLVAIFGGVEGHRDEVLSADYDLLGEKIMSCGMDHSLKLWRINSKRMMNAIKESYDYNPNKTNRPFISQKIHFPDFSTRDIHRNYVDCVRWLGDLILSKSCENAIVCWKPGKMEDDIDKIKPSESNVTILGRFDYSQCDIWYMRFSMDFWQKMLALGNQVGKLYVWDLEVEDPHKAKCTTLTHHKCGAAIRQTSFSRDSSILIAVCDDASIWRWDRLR
Sequence (Q15022 whole entry partner): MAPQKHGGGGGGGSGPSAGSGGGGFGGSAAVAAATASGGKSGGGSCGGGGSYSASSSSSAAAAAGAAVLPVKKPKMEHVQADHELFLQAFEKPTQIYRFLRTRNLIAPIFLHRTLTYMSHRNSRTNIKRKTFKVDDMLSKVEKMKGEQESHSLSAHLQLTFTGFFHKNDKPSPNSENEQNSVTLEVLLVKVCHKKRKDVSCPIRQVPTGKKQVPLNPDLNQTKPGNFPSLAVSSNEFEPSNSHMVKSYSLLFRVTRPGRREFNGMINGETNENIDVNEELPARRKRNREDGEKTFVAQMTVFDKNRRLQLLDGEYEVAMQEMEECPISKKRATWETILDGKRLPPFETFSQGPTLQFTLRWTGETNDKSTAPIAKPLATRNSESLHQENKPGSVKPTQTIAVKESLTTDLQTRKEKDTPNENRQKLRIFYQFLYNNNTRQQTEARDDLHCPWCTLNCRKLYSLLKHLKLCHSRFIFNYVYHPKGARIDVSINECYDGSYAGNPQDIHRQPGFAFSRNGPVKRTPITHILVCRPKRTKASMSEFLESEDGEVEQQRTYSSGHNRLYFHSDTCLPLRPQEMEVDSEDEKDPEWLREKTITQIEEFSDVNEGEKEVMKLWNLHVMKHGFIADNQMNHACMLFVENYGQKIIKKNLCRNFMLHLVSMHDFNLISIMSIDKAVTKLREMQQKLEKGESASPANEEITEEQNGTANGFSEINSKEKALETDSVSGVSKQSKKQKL
Sequence (Q09028 whole entry partner): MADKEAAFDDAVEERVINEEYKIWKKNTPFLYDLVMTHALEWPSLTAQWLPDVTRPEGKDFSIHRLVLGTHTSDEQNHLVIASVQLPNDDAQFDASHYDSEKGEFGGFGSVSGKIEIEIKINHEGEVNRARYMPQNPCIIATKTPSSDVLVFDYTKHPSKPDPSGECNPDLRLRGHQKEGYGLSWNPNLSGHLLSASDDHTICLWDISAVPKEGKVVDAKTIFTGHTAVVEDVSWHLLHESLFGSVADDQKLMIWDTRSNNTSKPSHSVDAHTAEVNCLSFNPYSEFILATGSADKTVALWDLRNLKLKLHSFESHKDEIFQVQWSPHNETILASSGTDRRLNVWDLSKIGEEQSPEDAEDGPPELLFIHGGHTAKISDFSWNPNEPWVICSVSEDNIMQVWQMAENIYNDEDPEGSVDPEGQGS
Sequence (Q6ZN18 whole entry partner): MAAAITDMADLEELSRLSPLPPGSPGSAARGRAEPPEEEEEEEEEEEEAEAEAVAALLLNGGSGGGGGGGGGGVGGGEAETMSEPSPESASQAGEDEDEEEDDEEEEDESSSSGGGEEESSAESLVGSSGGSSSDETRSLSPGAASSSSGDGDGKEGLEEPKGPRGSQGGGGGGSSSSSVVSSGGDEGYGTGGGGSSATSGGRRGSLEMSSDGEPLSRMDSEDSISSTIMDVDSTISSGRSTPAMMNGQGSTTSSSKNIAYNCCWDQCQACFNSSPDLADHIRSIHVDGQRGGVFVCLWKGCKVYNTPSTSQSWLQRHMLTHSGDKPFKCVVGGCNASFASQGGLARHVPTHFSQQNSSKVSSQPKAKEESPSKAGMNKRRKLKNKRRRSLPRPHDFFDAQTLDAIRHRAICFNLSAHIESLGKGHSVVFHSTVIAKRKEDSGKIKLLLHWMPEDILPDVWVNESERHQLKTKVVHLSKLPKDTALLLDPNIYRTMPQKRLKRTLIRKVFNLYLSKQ
assayComment: In vitro methyltransferase activity test (LANCE Ultra)
measurementConditions: read-out: EZH2 Y641F IC50; Recombinant PRC2 (EZH2-Y641F), LANCE Ultra detection, 3 hours reaction
Kindly note that pIC50 refers to -log10 of the concentration in mol/L and answer with the value alone.

Challenge: Look up pIC50: CCN(c1cc(Oc2cccnc2)cc2c(NCc3c(C)cc(C)[nH]c3=O)nccc12)[C@H]1CC[C@H](N(C)C)CC1 [Compound Z-188]
Response given: 6.95

Challenge: What do you have for CCN(c1cc(C#CCN2CCOCC2)cc2c(NCc3c(C)cc(C)[nH]c3=O)nccc12)[C@H]1CC[C@@H](N(C)C)CC1 [Compound Z-179] ?
Response given: 7.82

Challenge: What do you have for CCN(c1cc(-c2cnc(N3CCOCC3)nc2)cc2c(NCc3c(C)cc(C)[nH]c3=O)nccc12)[C@H]1CC[C@@H](O)CC1 [Compound Z-108] ?
Response given: 6.55

Challenge: What do you have for CCN(c1cc(Cl)cc2c(NCc3c(C)cc(C)[nH]c3=O)nccc12)C1CCC(N(C)C)CC1 (centres unmarked) [Compound Z-132] ?
Response given: 6.97

Challenge: What do you have for CCN(c1cc(C(N)=O)cc2c(NCc3c(C)cc(C)[nH]c3=O)nccc12)C1CCC(N(C)C)CC1 (centres unmarked) [Compound Z-21] ?
Response given: 6.69

###

pIC50 values, listed per item
targetOrSystem: Recombinant PRC2 (EZH2-Y641F) (Homo sapiens, UniProt Q15910, Y641F)
assayComment: In vitro methyltransferase activity test (LANCE Ultra)
measurementConditions: EZH2 Y641F IC50, Recombinant PRC2 (EZH2-Y641F), LANCE Ultra detection, 3 hours reaction
Kindly note that pIC50 refers to -log10 of the concentration in mol/L and answer with the value alone.

Worked examples follow.
- compound: "CCN(c1cc(Cl)cc2c(NCc3c(C)cc(C)[nH]c3=O)nccc12)[C@H]1CC[C@@H](N(C)C)CC1 [Compound Z-136]"
  recordedResult: 7.31
- compound: "CCN(c1cc(-c2ccc(CN3CCN(C)CC3)cc2)cc2c(NCc3c(C)cc(C)[nH]c3=O)nccc12)C1CCOCC1 [Compound Z-29]"
  recordedResult: 6.80
- compound: "CCN(c1cc(-c2ccc(CN3CCOCC3)nc2)cc2c(NCc3c(C)cc(C)[nH]c3=O)nccc12)C1CCOCC1 [Compound Z-113]"
  recordedResult: 6.82
- compound: "CCN(c1cc(C(=O)Nc2ccccn2)cc2c(NCc3c(C)cc(C)[nH]c3=O)nccc12)C1CCOCC1 [Compound Z-164]"
  recordedResult: 6.43

Consider the additional compound presented here.
Challenge: Look up pIC50: CCN(c1cc(-c2ccncc2)cc2c(NCc3c(C)cc(C)[nH]c3=O)nccc12)[C@H]1CC[C@H](N(C)C)CC1 [Compound Z-73]
Response given: 6.82

###

targetOrSystem: Recombinant PRC2 (EZH2-Y641F) (Homo sapiens, UniProt Q15910, Y641F)
assayComment: In vitro methyltransferase activity test (LANCE Ultra);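 also: compounds tested as an 8-point threefold dilution series, fluorescence read after 1 h detection step at room temperature, IC50 derived from a four-parameter curve fit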
measurementConditions: EZH2 Y641F IC50, Recombinant PRC2 (EZH2-Y641F), LANCE Ultra detection, 3 hours reaction
pIC50 values, listed per item
Kindly note that pIC50 refers to -log10 of the concentration in mol/L and answer with the value alone.

Worked examples follow.
- molecule: "CCN(c1cc(Cl)cc2c(NCc3c(C)cc(C)nc3O)nccc12)[C@H]1CC[C@H](N2CC(OC)C2)CC1"
  pIC50: 6.80
- molecule: "CCN(c1cc(-c2cn[nH]c2)cc2c(NCc3c(C)cc(C)[nH]c3=O)nccc12)C1CCC(N(C)C)CC1 (centres unmarked)"
  pIC50: 6.80
- molecule: "CCN(c1cc(-c2ccc(N3CCNCC3)nc2)cc2c(NCc3c(C)cc(C)[nH]c3=O)nccc12)C1CCC(N(C)C)CC1 (centres unmarked)"
  pIC50: 7.80
- molecule: "CCN(c1cc(C2=CCN(C)CC2)cc2c(NCc3c(C)cc(C)[nH]c3=O)nccc12)C1CCC(O)CC1 (centres unmarked)"
  pIC50: 7.12
- molecule: "CCN(c1cc(-c2ccc(N3CCN(C)CC3)nc2)cc2c(NCc3c(C)cc(C)[nH]c3=O)ncc(F)c12)C1CCC(N(C)C)CC1 (centres unmarked)"
  pIC50: 7.35

Challenge: Look up pIC50: `CCN(c1cc(-c2ccc(N3CCN(C)CC3)nc2)cc2c(NCc3c(C)cc(C)[nH]c3=O)nccc12)C1CCOCC1`
Response given: 6.82
